Entry source: patent US20250282885A1

# % Inhibition of VEGFA-induced permeability at 24hrs (20ug/ml) listing for each entry below
biological target: human Sdc2 on Human Umbilical Vein Endothelial Cells (HUVEC) (human, UniProt P34741 19-201); experiment: cell-based or functional assay
Sequence (P34741 19-201 limits assumed): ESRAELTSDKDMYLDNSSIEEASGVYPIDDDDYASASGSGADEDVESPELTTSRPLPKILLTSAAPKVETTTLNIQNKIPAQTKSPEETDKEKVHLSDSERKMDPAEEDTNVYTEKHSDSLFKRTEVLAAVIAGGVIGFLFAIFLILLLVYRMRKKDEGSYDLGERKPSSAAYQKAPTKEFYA
State just the number; it will be interpreted in %.

Consider the reported % Inhibition of VEGFA-induced permeability at 24hrs (20ug/ml) for these binders:
6-N03-A (antibody, mouse IgG1, kappa, V domains shown) VH: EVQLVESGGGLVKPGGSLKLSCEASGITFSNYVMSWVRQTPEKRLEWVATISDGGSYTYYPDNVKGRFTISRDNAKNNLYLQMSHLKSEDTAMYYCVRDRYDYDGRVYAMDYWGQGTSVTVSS VL: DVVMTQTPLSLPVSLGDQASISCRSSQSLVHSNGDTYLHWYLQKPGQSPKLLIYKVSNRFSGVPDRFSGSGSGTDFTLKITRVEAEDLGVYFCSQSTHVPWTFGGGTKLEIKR    50
R4M-P3-E06 (antibody, human IgG1, kappa, V domains shown, human IgG1 kappa from the phage campaign) VH: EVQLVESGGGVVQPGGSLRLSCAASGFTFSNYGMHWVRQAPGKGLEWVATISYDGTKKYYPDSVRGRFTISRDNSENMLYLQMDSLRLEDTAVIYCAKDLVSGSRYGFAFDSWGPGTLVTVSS VL: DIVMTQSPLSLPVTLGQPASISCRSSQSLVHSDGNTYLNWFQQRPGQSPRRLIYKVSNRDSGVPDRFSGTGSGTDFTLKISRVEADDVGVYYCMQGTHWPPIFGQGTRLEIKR    95
R4M-P3-A12 (antibody, human IgG1, kappa, V domains shown) VH: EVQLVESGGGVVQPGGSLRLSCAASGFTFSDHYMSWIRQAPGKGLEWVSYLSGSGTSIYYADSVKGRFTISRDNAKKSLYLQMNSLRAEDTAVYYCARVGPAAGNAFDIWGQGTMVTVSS VL: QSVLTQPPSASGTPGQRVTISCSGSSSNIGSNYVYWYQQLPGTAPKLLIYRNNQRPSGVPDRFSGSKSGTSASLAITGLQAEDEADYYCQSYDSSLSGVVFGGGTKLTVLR    60
R3-P3-E09 (antibody, human IgG1, kappa, V domains shown, human IgG1 kappa from the phage campaign) VH: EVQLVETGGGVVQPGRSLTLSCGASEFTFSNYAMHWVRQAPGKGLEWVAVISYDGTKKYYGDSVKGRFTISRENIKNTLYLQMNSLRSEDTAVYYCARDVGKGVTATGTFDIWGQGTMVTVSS VL: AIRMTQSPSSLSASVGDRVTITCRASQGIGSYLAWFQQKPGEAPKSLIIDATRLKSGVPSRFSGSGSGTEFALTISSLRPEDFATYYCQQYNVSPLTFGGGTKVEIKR    75
R3-P3-C11 (antibody, human IgG1, kappa, V domains shown, human IgG1 kappa from the phage campaign) VH: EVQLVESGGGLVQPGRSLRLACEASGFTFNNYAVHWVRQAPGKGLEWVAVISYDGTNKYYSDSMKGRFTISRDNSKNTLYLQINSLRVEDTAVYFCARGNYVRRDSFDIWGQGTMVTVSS VL: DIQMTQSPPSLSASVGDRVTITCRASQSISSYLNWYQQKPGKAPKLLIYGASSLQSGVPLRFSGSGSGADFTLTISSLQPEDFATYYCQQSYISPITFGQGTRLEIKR    100
8-G17-A (antibody, V domains shown, PentaMice hybridoma clone, made recombinantly in CHO cells) VH: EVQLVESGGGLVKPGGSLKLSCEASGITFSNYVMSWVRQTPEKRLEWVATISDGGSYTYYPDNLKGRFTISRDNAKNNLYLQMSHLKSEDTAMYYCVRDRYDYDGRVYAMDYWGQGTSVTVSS VL: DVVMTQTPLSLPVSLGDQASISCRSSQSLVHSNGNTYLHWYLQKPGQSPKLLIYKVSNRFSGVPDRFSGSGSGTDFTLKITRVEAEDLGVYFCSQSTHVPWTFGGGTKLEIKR    100
TP-43329F (antibody, human IgG1, kappa, V domains shown) VH: QVQLVESGGGVVQPGGSLRLSCAASGFTFNIYAMHWVRQAPGKGLEWVARIGSKSSYYATYYADSVKGRFTISRDNSKNTLYLQMNSLRTEDTAVYYCVSGKGDWGQGTLVTVSS VL: DVVMTQSPLSLPVTLGQPASISCRSSQSLLAGDGKTYLNWFQQRPGQSPRRLIYLVSKLDSGVPDRFSGSGSGTDFTLKISRVEAEDVGVYYCWQGTHFPWTFGAGTRLEIKR    100
TP-43327F (antibody, human IgG1, kappa, V domains shown) VH: QVQLVESGGGVVQPGGSLRLSCAASGFTFNIYAMHWVRQAPGKGLEWVARIGSKSSYYATYYADSVKGRFTISRDNSKNTLYLQMNSLRTEDTAVYYCVSGKGDWGQGTLVTVSS VL: DVVMTQSPLSLPVTLGQPASISCRSSQSLLAGDGKTYLNWFLQRPGQSPRRLIYLVSKLDSGVPDRFSGSGSGTDFTLKISRVEAEDVGVYYCWQGTHFPWTFGAGTRLEIKR    100

Record summary for R4M-P1-A10 (antibody, human IgG1, kappa, V domains shown) VH: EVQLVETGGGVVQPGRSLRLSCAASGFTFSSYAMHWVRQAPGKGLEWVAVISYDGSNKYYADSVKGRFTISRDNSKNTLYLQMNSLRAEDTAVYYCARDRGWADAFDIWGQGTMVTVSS VL: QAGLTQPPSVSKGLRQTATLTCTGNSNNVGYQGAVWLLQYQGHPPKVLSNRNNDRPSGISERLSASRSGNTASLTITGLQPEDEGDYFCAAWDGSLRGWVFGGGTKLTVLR : reported % Inhibition of VEGFA-induced permeability at 24hrs (20ug/ml) = 100
